Would you mind telling me the reported IC50 of each entry?
Target: Avi-KRAS G12D/Q25A (1-169) GppNHp/3xFLAG-PI3KCA (157-299) (Homo sapiens, UniProt P01116, G12D/Q25A)
Construct: 375 nM Avi-KRAS G12D/Q25A (1-169) GppNHp
Sequence (P01116 1-169 isoform P01116-2 G12D/Q25A): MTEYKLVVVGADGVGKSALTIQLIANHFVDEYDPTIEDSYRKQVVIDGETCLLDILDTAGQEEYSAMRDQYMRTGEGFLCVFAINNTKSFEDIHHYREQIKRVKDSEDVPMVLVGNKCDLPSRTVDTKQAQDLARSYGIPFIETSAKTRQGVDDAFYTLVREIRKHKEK
Experiment: RAS-effector PPI HTRF disruption assay, PI3KCA-GppNHp-KRAS G12D/Q25A
Format: biochemical

Example compounds with recorded IC50:
I would be grateful if you could share the reported IC50 for C[C@H]1NCC[C@H]1Oc1nc(OC[C@@]23CCCN2C[C@H](F)C3)nc2c(F)c(-c3ccc(F)c4sc(N)c(C#N)c34)c(C(F)(F)F)cc12 (single isomer, unassigned) [Compound 74] .
> 10 µM

Same for CC1(C)NCC[C@H]1Oc1nc(OC[C@@]23CCCN2C[C@H](F)C3)nc2c(F)c(-c3ccc(F)c4sc(N)nc34)c(C(F)(F)F)cc12
> 10 µM

Same lookup for CC1(C)NCCC1Oc1nc(OC[C@@]23CCCN2C[C@H](F)C3)nc2c(F)c(-c3ccc(F)c4sc(N)c(C#N)c34)c(C(F)(F)F)cc12 (some centres unmarked) , please.
0.1 to 1 µM

// query: N#Cc1c(N)sc2c(F)ccc(-c3c(Cl)cc4c(O[C@@H]5CN[C@@H](CO)C5)nc(OC[C@@]56CCCN5C[C@H](F)C6)nc4c3F)c12 (atropisomer, axis not shown) [Compound 68]
> 10 µM

List reported IC50 for each of these compounds:
1. N#Cc1c(N)sc2c(F)ccc(-c3ccc4c(O[C@H]5CNC[C@H]5F)nc(OC[C@@]56CCCN5C[C@H](F)C6)nc4c3F)c12
2. C[C@@H]1C[C@@H](Oc2nc(OC[C@@]34CCCN3C[C@H](F)C4)nc3c(F)c(-c4ccc(F)c5sc(N)nc45)c(C(F)(F)F)cc23)CN1 (atropisomer, axis not shown) [Compound 20]
3. C[C@H]1NCC[C@H]1Oc1nc(OC[C@@]23CCCN2C[C@H](F)C3)nc2c(F)c(-c3ccc(F)c4sc(N)c(C#N)c34)ncc12
4. Nc1nc2c(-c3c(C(F)(F)F)cc4c(O[C@H]5C[C@H]6CC[C@@H](C5)N6)nc(OCC56CCCN5CCC6)nc4c3F)ccc(F)c2s1 (atropisomer, axis not shown)
5. C[C@@H]1CNCC1Oc1nc(OC[C@@]23CCCN2C[C@H](F)C3)nc2c(F)c(-c3ccc(F)c4sc(N)nc34)c(C(F)(F)F)cc12 (some centres unmarked) [Compound 16]
6. N#Cc1c(N)sc2c(F)ccc(-c3c(Cl)cc4c(O[C@@H]5CN[C@H](CO)C5)nc(OC[C@@]56CCCN5C[C@H](F)C6)nc4c3F)c12

1 to 10 µM
1 to 10 µM
> 10 µM
1 to 10 µM
1 to 10 µM
0.1 to 1 µM

Recorded IC50 for Nc1nc2c(-c3c(C(F)(F)F)cc4c(O[C@@H]5CCNC5)nc(OC[C@@]56CCCN5C[C@H](F)C6)nc4c3Cl)ccc(F)c2s1 (atropisomer, axis not shown) [Compound 10] , please?
0.1 to 1 µM
